target: CYP3A4 (Homo sapiens, UniProt P08684); experiment: Mechanism-based (time- and concentration-dependent) inactivation of CYP3A4 in human liver microsomes; format: in vitro ADME; settings: pH 7.4, probe midazolam (2 µM), CYP3A4-mediated midazolam 1′-hydroxylation
Sequence (P08684 2-503): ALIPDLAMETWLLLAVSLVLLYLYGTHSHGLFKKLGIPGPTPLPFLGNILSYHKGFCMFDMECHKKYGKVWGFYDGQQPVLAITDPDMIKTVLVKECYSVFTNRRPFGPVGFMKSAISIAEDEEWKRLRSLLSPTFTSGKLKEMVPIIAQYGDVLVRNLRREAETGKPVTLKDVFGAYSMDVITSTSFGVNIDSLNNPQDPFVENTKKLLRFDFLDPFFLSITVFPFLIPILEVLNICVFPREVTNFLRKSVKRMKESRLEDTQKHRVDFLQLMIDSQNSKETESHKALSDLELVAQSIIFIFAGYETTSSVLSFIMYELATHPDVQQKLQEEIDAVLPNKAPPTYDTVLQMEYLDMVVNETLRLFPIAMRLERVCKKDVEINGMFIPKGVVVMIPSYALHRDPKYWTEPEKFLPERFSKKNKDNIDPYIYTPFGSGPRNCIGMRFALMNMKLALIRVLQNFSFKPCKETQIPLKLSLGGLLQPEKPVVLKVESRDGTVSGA
Property Label: kinact
Answer format: value, then unit.

Case COc1cc([C@H]2OC[C@H]3[C@@H]2CO[C@@H]3c2ccc3c(c2)OCO3)cc(OC)c1OC [Aschantin] , CYP3A4 (Homo sapiens, UniProt P08684), kinact recorded as 0.00103 s⁻¹

----------
Target: UGT1A3 (Homo sapiens, UniProt P35503)
Sequence (P35503 29-534): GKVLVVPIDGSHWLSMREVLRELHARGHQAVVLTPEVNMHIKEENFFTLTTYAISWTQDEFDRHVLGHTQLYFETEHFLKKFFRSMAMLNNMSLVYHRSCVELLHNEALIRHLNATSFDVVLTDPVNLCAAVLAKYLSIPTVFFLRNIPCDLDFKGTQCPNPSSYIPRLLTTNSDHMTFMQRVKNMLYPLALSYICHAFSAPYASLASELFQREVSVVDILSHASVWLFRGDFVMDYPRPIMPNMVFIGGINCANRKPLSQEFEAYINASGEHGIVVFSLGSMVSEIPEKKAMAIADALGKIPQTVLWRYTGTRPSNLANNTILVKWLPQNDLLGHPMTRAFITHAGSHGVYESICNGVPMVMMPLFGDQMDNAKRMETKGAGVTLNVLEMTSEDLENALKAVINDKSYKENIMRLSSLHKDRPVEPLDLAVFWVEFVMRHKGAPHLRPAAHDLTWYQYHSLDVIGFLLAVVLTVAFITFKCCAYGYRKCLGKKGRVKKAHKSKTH
Property Label: IC50

Case COc1cc([C@H]2OC[C@H]3[C@@H]2CO[C@@H]3c2ccc3c(c2)OCO3)cc(OC)c1OC [Aschantin] , UGT1A3 (Homo sapiens, UniProt P35503), IC50 recorded as > 200 µM
